EXPERIMENTAL_TARGET: guinea pig serum ACE (angiotensin converting enzyme) (Cavia porcellus, UniProt H0UWL7)
Construct: ACE from guinea pig serum
Sequence (H0UWL7 33-1302): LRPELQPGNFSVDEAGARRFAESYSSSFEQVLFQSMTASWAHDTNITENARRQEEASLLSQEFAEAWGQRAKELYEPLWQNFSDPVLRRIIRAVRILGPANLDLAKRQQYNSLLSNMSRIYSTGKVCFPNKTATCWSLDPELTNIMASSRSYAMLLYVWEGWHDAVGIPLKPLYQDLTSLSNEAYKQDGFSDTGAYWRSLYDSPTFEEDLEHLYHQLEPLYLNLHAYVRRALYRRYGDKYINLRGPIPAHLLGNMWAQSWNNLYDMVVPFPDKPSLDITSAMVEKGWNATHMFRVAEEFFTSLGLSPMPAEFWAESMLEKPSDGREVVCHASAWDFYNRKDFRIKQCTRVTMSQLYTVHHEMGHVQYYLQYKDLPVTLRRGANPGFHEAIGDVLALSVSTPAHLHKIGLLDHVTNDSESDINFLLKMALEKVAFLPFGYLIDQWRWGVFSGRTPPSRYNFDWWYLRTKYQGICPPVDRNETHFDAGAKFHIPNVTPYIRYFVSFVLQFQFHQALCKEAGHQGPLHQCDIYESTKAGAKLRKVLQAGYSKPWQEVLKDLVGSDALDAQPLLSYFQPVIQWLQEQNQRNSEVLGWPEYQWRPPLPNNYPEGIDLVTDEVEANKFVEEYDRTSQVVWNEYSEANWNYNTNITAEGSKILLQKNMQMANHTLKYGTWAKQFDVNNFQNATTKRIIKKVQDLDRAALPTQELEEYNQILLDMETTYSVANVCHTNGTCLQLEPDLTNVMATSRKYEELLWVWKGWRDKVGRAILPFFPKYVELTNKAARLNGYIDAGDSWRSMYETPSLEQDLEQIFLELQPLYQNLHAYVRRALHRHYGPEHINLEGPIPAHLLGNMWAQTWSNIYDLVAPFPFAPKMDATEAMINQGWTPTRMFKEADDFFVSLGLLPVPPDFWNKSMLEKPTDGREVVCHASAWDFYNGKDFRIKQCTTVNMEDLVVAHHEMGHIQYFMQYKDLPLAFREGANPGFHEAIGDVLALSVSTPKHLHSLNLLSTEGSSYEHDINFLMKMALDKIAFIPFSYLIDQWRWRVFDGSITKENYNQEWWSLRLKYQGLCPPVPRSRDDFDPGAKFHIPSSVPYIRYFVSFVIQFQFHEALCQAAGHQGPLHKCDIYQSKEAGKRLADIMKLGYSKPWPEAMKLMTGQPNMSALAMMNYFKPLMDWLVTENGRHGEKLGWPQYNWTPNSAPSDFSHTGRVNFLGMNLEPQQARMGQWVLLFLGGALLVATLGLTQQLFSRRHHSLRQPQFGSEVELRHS
ASSAY_COMMENT: In vitro ACE assay (angiotensin converting enzyme inhibitory activity, guinea pig serum ACE, 3H-hippuryl-glycyl-glycine substrate)
STATED_CONDITIONS: 10 min preincubation, 60 min incubation at 37° C., S,S,S configuration, hydrochloride salt (+) or maleate salt (#) by footnote, read-out: ACE I Activity (in vitro) IC50 Molar Conc.
QUANTITY_MEASURED: IC50 (nM)

(I) CCOC(=O)[C@H](CCc1ccccc1)N[C@@H](C)C(=O)N1Cc2ccccc2C[C@H]1C(=O)OC(C)(C)C
(II) CCOC(=O)[C@H](CCc1ccccc1)N[C@@H](C)C(=O)N1Cc2cc(OC)c(OC)cc2C[C@H]1C(=O)OCc1ccccc1
(III) CCOC(=O)[C@H](CCc1ccccc1)N[C@@H](C)C(=O)N1Cc2ccccc2C[C@H]1C(=O)OCc1ccccc1
(IV) CCOC(=O)[C@H](CCc1ccccc1)N[C@@H](C)C(=O)N1Cc2cc(OC)c(OC)cc2C[C@H]1C(=O)O
hey, can you rank those compounds up there by IC50? biggest number first please Form field (ranking): labels in requested order.
I, III, II, IV
